// data source = paper PMC11354720

System: proteases in Pelophylax esculentus skin secretion
Type: in vitro ADME
RECORDED CONDITIONS: sample 2: aqueous P. esculentus skin secretion with CH3OH added; LC-HRMS; all forms = 100%; one frog per sample
Experimental: The inhibitory capacity of methanol and hydrochloric and formic acids, as well as PMSF at the minimum and maximum concentrations traditionally used in proteomics (0.1–1.0 mM), was compared via mass spectrometric monitoring of intact and proteolytic forms of nine peptides in five samples of Pelophylax esculentus secretions (samples 1–5). […]
RECORDED ENDPOINT: Intact, % (%)
Just the number in %, nothing appended.

INSERT INTO results (substance, recorded_endpoint, measured_number) VALUES
  ('GXLDSLKNFAKDAAGILLKKASCKLSGQC-OH (disulfide) [Brev 2Ra, Brevinin 2Ra, natural disulfide skin peptide of Pelophylax esculentus, brevinin 2 family, 29 aa]', 'Intact, %', 100);

# ---- query substance ----
Task: Form field: reported Intact, % of GXWNTXKATGKSA ASNVAVTLLDKAKCK(LV)GEC-OH (disulfide) [Brev 2La, Brevinin 2La, natural disulfide skin peptide of Pelophylax esculentus, brevinin 2 family, 33 aa]
Result: 100
